Target: Nicotinic acetylcholine receptor alpha-4/beta-2 (Mus musculus) (UniProt Q9ERK7+Q8R493)
Assay: Activity at alpha4beta2*nAChR in mouse striatal synaptosomes assessed as alpha-conotoxic MII-resistant DA release relative to control
Format: subcellular
Settings: Brain
measured_attribute: Emax (%)
Number only, in %; omit the unit.

C(#C[C@H]1CCCN1)c1cccnc1.O=C(O)[C@@H](O)[C@H](O)[C@H](O)[C@@H](O)C(=O)O ... 120
CNCC/C=C/c1cccnc1.O=C(O)[C@@H](O)[C@H](O)[C@H](O)[C@@H](O)C(=O)O ... 122
C(=C\[C@@H]1CCNC1)/c1cncnc1.O=C(O)[C@@H](O)[C@H](O)[C@H](O)[C@@H](O)C(=O)O ... 133
C(#C[C@H]1CCCN1)c1cncnc1 ... 64
CN1C2C=C(c3cccnc3)CC1CC2.Cl.Cl (stereo not given) ... 75
c1cncc(C2CC3CCN2CC3)c1 (stereo not given) ... 29
C(=C\[C@@H]1CCNC1)/c1cccnc1.O=C(O)C(F)(F)F ... 109
CN1C2C=C(c3cncnc3)CC1CC2.O=C(O)C(F)(F)F (stereo not given) ... 45

Which value of Emax has been reported for O=C(O)C(F)(F)F.c1ncc(C2CC3CCN2CC3)cn1 (stereo not given) in the records?
43

Moving on to the next compound: `CNCC/C=C/c1cncnc1.O=C(O)[C@@H](O)[C@H](O)[C@H](O)[C@@H](O)C(=O)O`
73

###

Target: Neuronal acetylcholine receptor subunit alpha-3/beta-4 (Mus musculus, UniProt Q8R493+Q8R4G9)
Sequence (Q8R493 whole entry): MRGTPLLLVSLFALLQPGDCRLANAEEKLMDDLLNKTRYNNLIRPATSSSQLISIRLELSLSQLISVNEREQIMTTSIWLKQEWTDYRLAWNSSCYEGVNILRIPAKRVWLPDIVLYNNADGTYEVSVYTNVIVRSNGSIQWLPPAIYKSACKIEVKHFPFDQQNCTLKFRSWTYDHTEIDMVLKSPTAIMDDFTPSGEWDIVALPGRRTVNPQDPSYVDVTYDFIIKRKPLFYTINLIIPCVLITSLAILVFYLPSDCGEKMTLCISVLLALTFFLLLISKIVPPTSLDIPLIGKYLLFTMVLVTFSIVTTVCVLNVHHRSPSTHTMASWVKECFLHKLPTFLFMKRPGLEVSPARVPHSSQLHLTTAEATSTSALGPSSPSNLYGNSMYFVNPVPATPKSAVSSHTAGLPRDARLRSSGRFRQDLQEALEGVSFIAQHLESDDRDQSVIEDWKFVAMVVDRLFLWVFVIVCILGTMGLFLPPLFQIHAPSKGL
Sequence (Q8R4G9 whole entry): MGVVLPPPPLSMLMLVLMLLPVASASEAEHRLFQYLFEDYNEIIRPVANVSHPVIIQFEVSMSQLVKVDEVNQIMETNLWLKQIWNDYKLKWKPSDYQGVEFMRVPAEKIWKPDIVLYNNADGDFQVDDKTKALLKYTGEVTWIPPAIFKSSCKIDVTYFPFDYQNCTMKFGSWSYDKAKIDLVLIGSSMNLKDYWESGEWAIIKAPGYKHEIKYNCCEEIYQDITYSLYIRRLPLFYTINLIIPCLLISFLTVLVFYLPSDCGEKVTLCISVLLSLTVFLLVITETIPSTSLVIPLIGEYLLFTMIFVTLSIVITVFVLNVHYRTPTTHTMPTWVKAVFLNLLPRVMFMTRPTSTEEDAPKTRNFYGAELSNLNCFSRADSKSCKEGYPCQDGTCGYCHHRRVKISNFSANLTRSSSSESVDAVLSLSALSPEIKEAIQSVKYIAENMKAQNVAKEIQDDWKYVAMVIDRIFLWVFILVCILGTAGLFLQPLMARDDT
Assay: Activity at alpha3beta4* nAChR in mouse interpeduncular nucleus assessed as [3H]ACh release by scintillation counting relative to control
measured_attribute: pEC50
// returns pEC50 (minus log10 of molar concentration), number only

C(=C\[C@@H]1CCNC1)/c1cccnc1.O=C(O)C(F)(F)F ... 4.80
CN1C2C=C(c3cncnc3)CC1CC2.O=C(O)C(F)(F)F (stereo not given) ... 4.39
C(#C[C@H]1CCCN1)c1cncnc1 ... 4.47

Which value of pEC50 has been reported for O=C(O)C(F)(F)F.c1ncc(C2CC3CCN2CC3)cn1 (stereo not given) in the records?
5.62

Moving on to the next compound: `C(#C[C@H]1CCCN1)c1cccnc1.O=C(O)[C@@H](O)[C@H](O)[C@H](O)[C@@H](O)C(=O)O`
5.25

###

Target: Neuronal acetylcholine receptor subunit alpha-3/beta-4 (Mus musculus, UniProt Q8R493+Q8R4G9)
Experiment: Activity at alpha3beta4* nAChR in mouse interpeduncular nucleus assessed as [3H]ACh release by scintillation counting
Type: tissue-based
measured_attribute: Emax (%)
Number only, in %; omit the unit.

Example cases with answers are listed next.
CNCC/C=C/c1cccnc1.O=C(O)[C@@H](O)[C@H](O)[C@H](O)[C@@H](O)C(=O)O ... 45
C(=C\[C@@H]1CCNC1)/c1cncnc1.O=C(O)[C@@H](O)[C@H](O)[C@H](O)[C@@H](O)C(=O)O ... 97
CN1C2C=C(c3cncnc3)CC1CC2.O=C(O)C(F)(F)F (centres undefined) ... 35

Let us move to another entry and its Emax.
Which value of Emax has been reported for `CNCC/C=C/c1cncnc1.O=C(O)[C@@H](O)[C@H](O)[C@H](O)[C@@H](O)C(=O)O` in the records?
4
